Taken from the supplement of paper PMC9170038.

- Test system: MS2 coat protein
- test-details: apparent KD of MS2 coat protein; designed switch direction (-1 OFF switch, 1 ON switch): -1; higher = weaker reporter binding
- details: input ligand: microRNA oligo, concentration not stated
property-name: apparent KD of MS2 coat protein (nM)

CGGCAUGUCUGAGGAUAUCUGCACGAUUAGUGCAGAGAAGGCAGAACAUGAGGAUCACCCAUGUAGAUCAUUAACCGAUUAAUU [ENG1/7-A1] (Eterna round: R96, puzzle: Exclusion NG 1) = 127
GCGGACUUGAACGUGAGUUCAGAGACAUGAGGAUCACCCAUGUAGGAUAUCGAUUCGAAACGAAUCGAGAAGGGCAUGGUCCGC [JL denovo 14] (Eterna round: R96, puzzle: Exclusion NG 3) = 21.3
GCAGCAUAGUUUACUAACUGUUACAUGAGGAUCACCCAUGUCUAGGAUAUGGUCUGGAUUACAGGCCAGAAGGAGGCAAGCUGC [Eli exng3 - 035] (Eterna round: R96, puzzle: Exclusion NG 3) = 16.8
GUGGGUUACAUGAGGAUCACCCAUGUAUAGUGGGAAGAGAUAUAGGAUAUAAUAUAAAAAUUAUAUUAGAAGGAUAGAGACUAG [AK ExNG3-1.2] (Eterna round: R96, puzzle: Exclusion NG 3) = 285
UCGACGUCGUCAGGAUAUAGUCUUAAUGUCAUGCUUUUGUUCGUACAUGAGGAUCACCCAUGUGGCUAGAAGGGACUAAAGUUU [JR_ExcNG2_Sub016] (Eterna round: R96, puzzle: Exclusion NG 2) = 11.7
UUAAUUCGGAUUCUUGAAAUACAUGAGGAUCACCCAUGUUCACAGGAUAUUGAUUAAGUUAGUAACAAGAAGGGUGUAACAUAA [JR_ExcNG3_Sub035] (Eterna round: R96, puzzle: Exclusion NG 3) = 17.6
GCCGAUUAAGUGAGGAUAUACCUAUGGAUACAUAGGUAGAAGGCACAUGAGGAUCACCCAUGUUCCUCAUCGGC [Fiskers BMX 4 - 11] (Eterna round: R96, puzzle: Brourd's mod of Exclusion 4) = 16.5
ACAUGUUGUGCAGGAUAUGGGACACAUGAGGAUCACCCAUGUGGCUACAUGUCAUACCAAGCGUCUCAGAAGGGUAUUAACAUG [Ex NG2 #37] (Eterna round: R96, puzzle: Exclusion NG 2) = 24.8
AUAAUACAUGUAGGAUAUCUGCACGUGUAGUGCAGAGAAGGACAUGAGGAUCACCCAUGUAAUUAAGAUCAAUUAUUAAAUUAU [ENG1/3-D3] (Eterna round: R96, puzzle: Exclusion NG 1) = 53.6
UGAGUGCUGCGAGGAUAUACAUGAGGAUCACCCAUGUAUACCUGUGAGGCUUUGCCUCACAGGUAGUAGAAGGCGCAGUACUCU [Mat - Exclusion NG 2 - Mod of JL - D44] (Eterna round: R96, puzzle: Exclusion NG 2) = 9.11
ACGAUGACUGAAAGAAGUCAAAAGACAUGAGGAUCACCCAUGUAGGAUAUGGCUACGAAAAGUAGUCAGAAGGACAAGUCAUCA [Omei Exc(NG) 3 Av4] (Eterna round: R96, puzzle: Exclusion NG 3) = 9.69
AAGAAACAUGAGGAUCACCCAUGUGAGGAUAUGAAAAAGAAAAGAAAAGAAAGAAGAAUCAGAAGGCACAAAGC [salish99-ex1_r3_090] (Eterna round: R96, puzzle: Exclusion 1) = 25.3
UAUUAUAAUGUAGGAUAUCUGCACGUUUAGUGCAGAGAAGGACAUGAGGAUCACCCAUGUAUAGUAGCUUCGGCUACAUUAUUU [ENG1-B2] (Eterna round: R96, puzzle: Exclusion NG 1) = 52.2
GUGUCUCGUGUAGGAUAUGCGCGAGGUCUUUGUGCAGAAGGACAUGAGGAUCACCCAUGUAUUCCGCGGCGCGGGCAUGUGUCC [-29/-27 Kcal and A 18%] (Eterna round: R96, puzzle: Exclusion NG 1) = 46.7
UUAAAAUAUGUAGGAUAUGCGUGGCGAAGCUAUGCAGAAGGACAUGAGGAUCACCCAUGUUCCUGCGUCCGCGUACGGAUGCAA [JL Eng1 1.21 mod 3] (Eterna round: R96, puzzle: Exclusion NG 1) = 9.15
GGUUGGCGAGGAUAUACAUGAGGAUCACCCAUGUGAGAGAAAAAAGUGAGCAAGAAAAGUAGAAGGCGCUGACG [salish99_ex3_r3_030] (Eterna round: R96, puzzle: Exclusion 3) = 110
UGUCAGAUGGUAGGAUAUCUAUAUCGAGUGACCCUUUCAUAACAUGAGGAUCACCCAUGUCGGUGGGAGAAGGGCCGUAUGGUG [salish99_ExNG02_R04_029] (Eterna round: R96, puzzle: Exclusion NG 2) = 23.2
AGAGAAUAGUCAGGAUAUCUUAAUAGAAAGAAUAGAGAAGGGACACAUGAGGAUCACCCAUGUGAAGUCUUGAGACUACAUGGU [Prohibition 30 - Jieux - Exclusion NG 1] (Eterna round: R96, puzzle: Exclusion NG 1) = 27.4
